assayed_target: h5-HT2A receptor (Homo sapiens)
run_description: Radioligand binding, [3H]-ketanserin
Set-up: expressed in transfected cells; host or cells: HEK293 cell preparations
Listing of recorded pKi by entry.
Convention used: pKi is expressed as -log10 of the molar concentration.

molecule	pKi
Cc1ccc(C(=O)C(C)N2CCCC2)cc1 (stereo not drawn) [4-MePPP, 4-methyl-α-pyrrolidinopropiophenone]	5.89

Now consider the entry below.
# input Item: CC(C(=O)c1ccc2c(c1)OCO2)N1CCCC1 (centres unmarked) [MDPPP] Test system: h5-HT2A receptor (Homo sapiens) Read-out: pKi Value: ?
# output 5.10

====

assayed_target: UniProtKB P31645
run_description: Transporter binding, [3H]-citalopram
readout_label: Ki

# input Which value of Ki has been reported for Cc1ccc(C(=O)C(C)N2CCCC2)cc1 (stereo not shown) in the records?
# output > 7.4 µM

====

assayed_target: hDAT (Homo sapiens, UniProt Q01959)
Sequence (Q01959 whole entry): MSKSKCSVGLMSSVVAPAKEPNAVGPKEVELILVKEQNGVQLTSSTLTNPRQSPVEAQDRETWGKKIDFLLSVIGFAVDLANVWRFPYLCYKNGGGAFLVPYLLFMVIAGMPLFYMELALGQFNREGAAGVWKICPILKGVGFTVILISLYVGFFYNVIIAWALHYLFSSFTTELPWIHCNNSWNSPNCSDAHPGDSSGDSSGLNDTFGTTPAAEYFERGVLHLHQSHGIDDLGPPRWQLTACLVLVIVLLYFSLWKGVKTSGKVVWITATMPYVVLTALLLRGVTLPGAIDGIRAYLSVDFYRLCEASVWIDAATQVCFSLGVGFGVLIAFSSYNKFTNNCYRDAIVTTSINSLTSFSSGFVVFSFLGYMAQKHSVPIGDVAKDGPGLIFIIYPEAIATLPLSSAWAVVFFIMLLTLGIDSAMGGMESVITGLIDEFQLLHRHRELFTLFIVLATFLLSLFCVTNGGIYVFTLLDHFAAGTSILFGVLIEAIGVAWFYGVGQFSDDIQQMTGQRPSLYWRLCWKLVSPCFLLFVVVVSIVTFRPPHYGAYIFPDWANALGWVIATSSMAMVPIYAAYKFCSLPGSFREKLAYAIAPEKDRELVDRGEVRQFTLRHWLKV
run_description: Transporter binding, [3H]-WIN-35,428
readout_label: Ki
Answer format: value, then unit.

# input Which value of Ki has been reported for Cc1ccc(C(=O)C(C)N2CCCC2)cc1 (stereo not drawn) [4-MePPP, 4-methyl-α-pyrrolidinopropiophenone] in the records?
# output 300 nM

====

assayed_target: h5-HT2A receptor (Homo sapiens)
run_description: Radioligand binding, [3H]-ketanserin
Design: expressed in transfected cells; host or cells: HEK293 cell preparations
Listing of recorded Ki by entry.

# input Which value of Ki has been reported for COc1ccc(C(=O)C(C)N2CCCC2)cc1 (centres unmarked) in the records?
# output > 13 µM

====

assayed_target: human dopamine (hDAT) uptake transporter (Homo sapiens, UniProt Q01959)
Sequence (Q01959 whole entry): as above
run_description: Monoamine uptake inhibition, dopamine uptake in transfected HEK293 cells
Note to self: IC50 under 60 nM means Condition met, ties and anything higher get Condition not met.

# input Confirm or reject: IC50 of CCCCC(NCC)C(=O)c1ccccc1 (stereo not drawn) [NEH, N-ethylamine-hexanophenone] lies strictly below 60 nM
# output Condition not met

# input Confirm or reject: IC50 of CNC(C)Cc1ccc2c(c1)OCO2 (stereo not drawn) [MDMA, 3,4-methylenedioxymethamphetamine, reference compound] lies strictly below 60 nM
# output Condition not met

# input Confirm or reject: IC50 of CC(C(=O)c1ccccc1)N1CCCC1 (stereo not drawn) [α-PPP, α-pyrrolidinopropiophenone] lies strictly below 60 nM
# output Condition not met

====

assayed_target: human dopamine (hDAT) uptake transporter (Homo sapiens)
run_description: Monoamine uptake inhibition, dopamine uptake in transfected HEK293 cells
pIC50: −log10 of the molar value.
pIC50 of 7 or higher: YES. Under 7: NO.

molecule	category_label
CCC(C(=O)c1ccc(F)cc1)N1CCCC1 (stereo not drawn) [4F-PBP, 4-fluoro-α-pyrrolidinobutiophenone]	NO
CCCC(C(=O)c1ccc(C)cc1)N1CCCC1 (centres unmarked) [Pyrovalerone, pyrovalerone]	YES
CC(C(=O)c1ccc2c(c1)OCO2)N1CCCC1 (centres unmarked) [MDPPP]	NO

Could you now consider this next molecule?
# input In plain terms: is recorded pIC50 at least 7 for CCCCC(C(=O)c1ccccc1)N1CCCC1 (stereo not drawn) [α-PHP, α-pyrrolidinohexanophenone] ?
# output YES

====

Listing of recorded EC50 by entry.
assayed_target: h5-HT2A receptor (Homo sapiens)
run_description: Activation potency, FLIPR calcium assay in NIH-3T3 cells
Type: cell-based
Parameters: expressed in transfected cells
Description: Mouse embryonic fibroblasts (NIH-3T3) were transfected with the human 5-HT2A receptors, seed into 96-well plates coated with poly-D-lysine at a concentration of 70,000 cell per 0.1 mL and then incubated for 1 h at 37 °C in HEPES-Hank’s Balanced Salt Solution (HBSS) buffer (Gibco). Next, the plates were exposed to 100 μL/well of dye solution for 1 h at 37 °C inside the FLIPR (fluorescence imagining plate reader [FLIPR] calcium 5 assay kit; Molecular Devices, Sunnyvale, CA, USA). […]

compound	assayed_target	readout_label	result
CCC(C(=O)c1ccc2c(c1)OCO2)N1CCCC1 (centres unmarked)	h5-HT2A receptor (Homo sapiens)	EC50	> 20 µM
CCCCC(NCC)C(=O)c1ccccc1 (centres unmarked)	h5-HT2A receptor (Homo sapiens)	EC50	> 20 µM
Cc1ccc(C(=O)C(C)N2CCCC2)cc1 (centres unmarked)	h5-HT2A receptor (Homo sapiens)	EC50	> 10 µM
CCC(C(=O)c1ccc(F)cc1)N1CCCC1 (centres unmarked)	h5-HT2A receptor (Homo sapiens)	EC50	> 20 µM

# input Which value of EC50 has been reported for CCCCC(C(=O)c1ccccc1)N1CCCC1 (centres unmarked) in the records?
# output > 20 µM

====

Listing of recorded log10 IC50 by entry.
assayed_target: human norepinephrine (hNET) uptake transporter (Homo sapiens, UniProt P23975)
Sequence (P23975 whole entry): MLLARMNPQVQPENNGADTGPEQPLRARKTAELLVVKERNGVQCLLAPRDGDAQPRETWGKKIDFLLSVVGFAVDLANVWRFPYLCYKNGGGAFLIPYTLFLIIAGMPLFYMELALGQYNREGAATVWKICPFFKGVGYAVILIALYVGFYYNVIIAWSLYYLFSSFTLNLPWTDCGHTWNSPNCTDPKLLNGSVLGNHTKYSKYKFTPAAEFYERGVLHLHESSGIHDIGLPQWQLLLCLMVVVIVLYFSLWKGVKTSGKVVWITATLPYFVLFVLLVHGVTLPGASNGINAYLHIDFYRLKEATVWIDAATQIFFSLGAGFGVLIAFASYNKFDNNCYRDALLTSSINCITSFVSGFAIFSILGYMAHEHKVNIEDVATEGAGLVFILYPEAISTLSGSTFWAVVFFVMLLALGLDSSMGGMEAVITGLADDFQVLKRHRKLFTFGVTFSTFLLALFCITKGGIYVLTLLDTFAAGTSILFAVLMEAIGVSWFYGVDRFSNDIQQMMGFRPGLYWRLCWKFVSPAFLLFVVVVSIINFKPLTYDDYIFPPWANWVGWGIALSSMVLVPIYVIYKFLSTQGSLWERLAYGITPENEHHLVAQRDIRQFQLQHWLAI
run_description: Monoamine uptake inhibition, norepinephrine uptake in transfected HEK293 cells
Protocol: The monoamine uptake transporter inhibition was examined in accordance with previously described methods by for each substance of interest. […] The data were analysed using Prism software (version 8, GraphPad, San Diego, CA, USA) and was fitted by a nonlinear regression to variable-slope sigmoidal dose-response curve. […]
log10 IC50, nM

For orientation, consider the following solved cases.
molecule	readout_label	result
CCCCC(C(=O)c1ccc(C)cc1)N1CCCC1 (stereo not drawn) [MPHP, 4-methyl-α-pyrrolidinohexanophenone]	log10 IC50	1.85
CCCCC(C(=O)c1ccc2c(c1)OCO2)N1CCCC1 (centres unmarked) [MDPHP]	log10 IC50	1.78

Now consider the entry below.
# input Which value of log10 IC50 has been reported for CCCC(C(=O)c1ccc(C)cc1)N1CCCC1 (centres unmarked) [Pyrovalerone, pyrovalerone] in the records?
# output 1.78

====

assayed_target: dopaminergic D2 receptor (Homo sapiens, UniProt P14416)
Sequence (P14416 whole entry): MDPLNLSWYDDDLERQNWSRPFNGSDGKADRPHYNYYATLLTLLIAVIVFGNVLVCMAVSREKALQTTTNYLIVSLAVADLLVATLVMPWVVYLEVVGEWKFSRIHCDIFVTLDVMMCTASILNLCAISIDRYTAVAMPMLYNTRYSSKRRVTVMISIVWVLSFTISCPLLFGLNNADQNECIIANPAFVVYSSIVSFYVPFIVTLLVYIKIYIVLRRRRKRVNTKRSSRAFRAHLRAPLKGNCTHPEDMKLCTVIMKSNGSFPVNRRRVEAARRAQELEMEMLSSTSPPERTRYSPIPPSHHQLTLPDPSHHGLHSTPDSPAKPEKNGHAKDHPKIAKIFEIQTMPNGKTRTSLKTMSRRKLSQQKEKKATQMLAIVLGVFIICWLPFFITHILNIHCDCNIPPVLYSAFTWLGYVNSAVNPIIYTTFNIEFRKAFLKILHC
run_description: Receptor binding, [3H]-spiperone
pKi: −log10 of the molar value.
readout_label: pKi

# input Which value of pKi has been reported for Cc1ccc(C(=O)C(C)N2CCCC2)cc1 (stereo not shown) in the records?
# output < 4.89

====

Listing of recorded pIC50 by entry.
assayed_target: human serotonin (hSERT) uptake transporter (Homo sapiens)
Construct: expressed in transfected cells; host or cells: HEK293
Sequence (P31645 whole entry): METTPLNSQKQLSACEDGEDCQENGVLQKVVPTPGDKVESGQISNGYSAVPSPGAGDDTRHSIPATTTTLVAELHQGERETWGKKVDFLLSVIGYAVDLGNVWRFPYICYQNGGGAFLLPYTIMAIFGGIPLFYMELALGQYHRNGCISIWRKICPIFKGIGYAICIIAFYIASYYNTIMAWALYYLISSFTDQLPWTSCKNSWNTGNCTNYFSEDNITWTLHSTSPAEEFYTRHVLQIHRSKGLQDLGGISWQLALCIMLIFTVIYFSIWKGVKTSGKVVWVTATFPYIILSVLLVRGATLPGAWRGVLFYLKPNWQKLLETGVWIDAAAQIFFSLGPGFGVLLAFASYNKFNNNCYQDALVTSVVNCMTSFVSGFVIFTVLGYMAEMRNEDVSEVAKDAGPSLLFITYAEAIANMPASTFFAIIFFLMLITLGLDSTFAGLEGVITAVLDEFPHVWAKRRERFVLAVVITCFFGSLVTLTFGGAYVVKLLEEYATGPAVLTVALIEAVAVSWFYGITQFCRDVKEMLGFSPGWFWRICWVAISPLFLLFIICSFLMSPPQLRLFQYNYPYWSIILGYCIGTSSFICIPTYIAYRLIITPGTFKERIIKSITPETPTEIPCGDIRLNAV
run_description: Monoamine uptake inhibition, serotonin uptake in transfected HEK293 cells
Format: cell-based
Convention used: pIC50 is expressed as -log10 of the molar concentration.

For orientation, consider the following solved cases.
compound	assayed_target	pIC50
Cc1ccc(C(=O)C(C)N2CCCC2)cc1 (stereo not drawn) [4-MePPP, 4-methyl-α-pyrrolidinopropiophenone]	human serotonin (hSERT) uptake transporter (Homo sapiens)	4.26
CCCCC(NCC)C(=O)c1ccccc1 (stereo not drawn) [NEH, N-ethylamine-hexanophenone]	human serotonin (hSERT) uptake transporter (Homo sapiens)	4.33
CCCC(C(=O)c1ccccc1)N1CCCC1 (stereo not drawn) [α-PVP, α-pyrrolidinopentiophenone]	human serotonin (hSERT) uptake transporter (Homo sapiens)	3.55
CCCCC(C(=O)c1ccccc1)N1CCCC1 (stereo not drawn) [α-PHP, α-pyrrolidinohexanophenone]	human serotonin (hSERT) uptake transporter (Homo sapiens)	3.61

Now consider the entry below.
# input Which value of pIC50 has been reported for CCCCC(C(=O)c1ccc2c(c1)OCO2)N1CCCC1 (stereo not drawn) [MDPHP] in the records?
# output 5.05

====

Listing of recorded pKi by entry.
assayed_target: h5-HT1A receptor (Homo sapiens, UniProt P08908)
Sequence (P08908 1-422): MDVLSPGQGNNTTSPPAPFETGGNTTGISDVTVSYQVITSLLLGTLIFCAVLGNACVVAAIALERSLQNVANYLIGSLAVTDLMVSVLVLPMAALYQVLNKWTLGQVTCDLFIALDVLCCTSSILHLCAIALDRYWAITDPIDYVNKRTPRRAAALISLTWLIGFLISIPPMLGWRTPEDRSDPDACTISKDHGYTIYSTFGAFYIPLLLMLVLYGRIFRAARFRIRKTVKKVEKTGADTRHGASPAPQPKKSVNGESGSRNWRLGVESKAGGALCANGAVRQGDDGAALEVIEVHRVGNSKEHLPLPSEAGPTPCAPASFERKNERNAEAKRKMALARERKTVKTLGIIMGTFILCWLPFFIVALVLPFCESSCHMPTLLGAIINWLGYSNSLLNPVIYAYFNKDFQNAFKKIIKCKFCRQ
Convention used: pKi is expressed as -log10 of the molar concentration.

For orientation, consider the following solved cases.
compound	result
CCCCC(C(=O)c1ccccc1)N1CCCC1 (stereo not drawn) [α-PHP, α-pyrrolidinohexanophenone]	4.96
CCCCC(C(=O)c1ccc2c(c1)OCO2)N1CCCC1 (stereo not shown) [MDPHP]	4.89
CCC(C(=O)c1ccc(F)cc1)N1CCCC1 (stereo not drawn) [4F-PBP, 4-fluoro-α-pyrrolidinobutiophenone]	5.22
CCCC(C(=O)c1ccccc1)N1CCCC1 (stereo not drawn) [α-PVP, α-pyrrolidinopentiophenone]	5.21
CC(C(=O)c1ccc2c(c1)OCO2)N1CCCC1 (stereo not shown) [MDPPP]	5.72
CCC(C(=O)c1ccc2c(c1)OCO2)N1CCCC1 (stereo not shown) [MDPBP]	5.05
CCCCC(C(=O)c1ccc(C)cc1)N1CCCC1 (stereo not drawn) [MPHP, 4-methyl-α-pyrrolidinohexanophenone]	4.89
CCCC(C(=O)c1ccc2c(c1)OCO2)N1CCCC1 (stereo not shown) [MDPV, 3,4-methylenedioxypyrovalerone]	5.11

# input Which value of pKi has been reported for CC(C(=O)c1ccccc1)N1CCCC1 (stereo not drawn) [α-PPP, α-pyrrolidinopropiophenone] in the records?
# output 6.15

# input Which value of pKi has been reported for CCCC(C(=O)c1ccc(C)cc1)N1CCCC1 (stereo not shown) [Pyrovalerone, pyrovalerone] in the records?
# output 4.89

# input Which value of pKi has been reported for Cc1ccc(C(=O)C(C)N2CCCC2)cc1 (stereo not drawn) [4-MePPP, 4-methyl-α-pyrrolidinopropiophenone] in the records?
# output 4.92
